Target: human mAChR M1 (Homo sapiens)
Experiment: mAChR M1 cell-based functional assay: calcium mobilization, positive allosteric modulator mode (increase in EC20 acetylcholine response)
Conditions: Table 2; human M1; read-out: Human M1 EC50
pEC50: −log10 of the molar value.
Measured Attribute: pEC50

Recorded results for 3 compounds are shown here.
**Query** Field: pEC50 (human mAChR M1 (Homo sapiens)). Entry: O=C(NCC1CCN1)c1cc(Cc2ccc(-n3cccn3)cc2)c2sccc2n1 (centres unmarked) [Compound 292]
**Result** 6.65

**Query** Field: pEC50 (human mAChR M1 (Homo sapiens)). Entry: Cn1ccc(-c2ccc(Cc3cc(C(=O)NCC4CCOC4)nc4ccsc34)cn2)n1 (centres unmarked) [Compound 356]
**Result** 6.41

**Query** Field: pEC50 (human mAChR M1 (Homo sapiens)). Entry: Cn1ccc(-c2ccc(Cc3cc(C(=O)N[C@H]4CCC[C@@H]4O)nc4ccsc34)cc2)n1 [Compound 253]
**Result** 6.84

I: Cc1csc2c(Cc3ccc(-n4cccn4)cc3)cc(C(=O)NC3COC3)nc12 [Compound 319]
II: O=C(NCC1CCOCC1)c1cc(Cc2ccc(-n3cccn3)cc2)c2sccc2n1 [Compound 288]
III: Cn1ccc(-c2ccc(Cc3cc(C(=O)N[C@H]4CC[C@@H]4O)nc4ccn(C)c34)cn2)n1 [Compound 513]
**Query** Order the records so the highest pEC50 appears first and the lowest last. The reply should contain the labels ordered as requested.
**Result** II, III, I

* * *

Molecular target: human mAChR M1 (Homo sapiens)
Test: mAChR M1 cell-based functional assay: calcium mobilization, positive allosteric modulator mode (increase in EC20 acetylcholine response)
Conditions: Table 1; mAChR M1 cell-based functional assay, PAM mode; species not given; read-out: EC50
Measured Attribute: EC50 (µM)

**Query** Any idea what its EC50 is? The compound is Cn1cc(-c2ccc(Oc3cc(C(=O)N[C@H]4CCCC[C@@H]4O)nc4ccsc34)c(F)c2)cn1 [Compound 2]
**Result** 2.15

P: Cc1ccc(Oc2cc(C(=O)N[C@H]3CCOC[C@@H]3O)nc3ccsc23)cn1 [Compound 22]
Q: Cn1cc2c(-c3cc(F)c(Cc4cc(C(=O)N[C@H]5CCCC[C@@H]5O)nc5ccsc45)c(F)c3)cccc2n1 [Compound 41]
**Query** Which of these two has the smaller recorded EC50: P or Q ? State your choice using its label.
**Result** P
(P: 1.79 µM, Q: 3.64 µM)

a: Cn1cc(-c2ccc(Oc3cc(C(=O)N[C@H]4CCOC[C@@H]4O)nc4ccsc34)c(F)c2)cn1 [Compound 7]
b: Cc1ccc(Cc2cc(C(=O)N[C@H]3CCC[C@@H]3O)nc3ccsc23)cn1 [Compound 42]
c: Cc1ccc(Cc2cc(C(=O)NC3CCCCC3)nc3ccsc23)cn1 [Compound 43]
d: Cc1ccc(Cc2cc(C(=O)N[C@H]3COCC[C@@H]3O)nc3ccsc23)cn1 [Compound 46]
**Query** Order the records so the highest EC50 appears first and the lowest last. The reply should contain the labels ordered as requested.
**Result** a, c, b, d

* * *

Molecular target: UniProtKB P11229
Sequence (P11229 1-460): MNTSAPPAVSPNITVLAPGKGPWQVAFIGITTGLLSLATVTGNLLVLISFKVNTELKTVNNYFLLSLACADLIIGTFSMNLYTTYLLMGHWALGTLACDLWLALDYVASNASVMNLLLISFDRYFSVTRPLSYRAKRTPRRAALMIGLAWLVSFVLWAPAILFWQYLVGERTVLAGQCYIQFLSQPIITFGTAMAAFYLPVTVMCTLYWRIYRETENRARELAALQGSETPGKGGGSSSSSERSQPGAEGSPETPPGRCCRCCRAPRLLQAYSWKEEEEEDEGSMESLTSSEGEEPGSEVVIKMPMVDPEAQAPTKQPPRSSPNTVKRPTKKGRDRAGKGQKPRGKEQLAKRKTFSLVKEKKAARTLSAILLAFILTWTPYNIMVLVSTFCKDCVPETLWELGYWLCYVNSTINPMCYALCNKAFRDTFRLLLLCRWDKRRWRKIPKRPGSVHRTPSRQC
Assay: mAChR M1 cell-based functional assay: calcium mobilization, positive allosteric modulator mode (increase in EC20 acetylcholine response)
Conditions: Table 2; human M1; read-out: Human M1 Emax (%)
Measured Attribute: Emax (%)

Recorded results for 3 molecules are shown here.
**Query** Any idea what its Emax is? The molecule is CC1(C)CC(NC(=O)c2cc(Cc3ccc(-c4cncs4)cc3)c3sccc3n2)CCO1 (centres unmarked)
**Result** 67.8

**Query** Any idea what its Emax is? The molecule is "Cc1ncc(Cc2cc(C(=O)N[C@@H]3CCOC[C@H]3O)nc3ccsc23)cn1"
**Result** 75

**Query** Any idea what its Emax is? The molecule is Cc1ccc(Cc2cc(C(=O)NC3C4CC5C[C@H]3CC(O)(C5)C4)nc3ccsc23)cn1 (some centres unmarked)
**Result** 70.7

a: Cc1nn(C)c(C)c1-c1ccc(Cc2cc(C(=O)N[C@@H]3CC[C@H]3O)nc3ccsc23)cc1
b: O=C(N[C@H]1CC[C@@H]1O)c1cc(Cc2ccc(C(F)(F)F)nc2)c2sccc2n1
**Query** Lab note: record which item had the higher Emax, a or b . State your choice using its label.
**Result** b
(b: 84.9%, a: 19.9%)

* * *

Biological target: UniProtKB P11229
Test: mAChR M1 cell-based functional assay: calcium mobilization, positive allosteric modulator mode (increase in EC20 acetylcholine response)
Conditions: Table 2; human M1; read-out: Human M1 Emax (%)
Protocol: a. Cell Lines Expressing Muscarinic Acetylcholine Receptors Chinese hamster ovary (CHO-K1) cells stably expressing rat (r)M1 were purchased from the American Type Culture Collection and cultured according to their indicated protocol. […] Calcium flux was measured using the Functional Drug Screening System (FDSS) 6000 (Hamamatsu Corporation, Tokyo, Japan) as an increase in the fluorescent static ratio. […]
Measured Attribute: Emax (%)

Recorded results for 5 compounds are shown here.
**Query** Any idea what its Emax is? The compound is CN(C(=O)c1cc(Cc2ccc(-c3cscn3)cc2)c2sccc2n1)C1CCOCC1 [Compound 214]
**Result** 81.1

**Query** Any idea what its Emax is? The compound is Cc1csc2c(Cc3ccc(-c4ccn(C)n4)cc3)cc(C(=O)NC3COC3)nc12 [Compound 307]
**Result** 67.2

**Query** Any idea what its Emax is? The compound is Cc1ncc(Cc2cc(C(=O)N[C@@H]3COCC[C@H]3O)nc3ccsc23)cn1 [Compound 129]
**Result** 51.5

**Query** Any idea what its Emax is? The compound is Cc1ccc(Cc2cc(C(=O)N[C@@H]3COCC[C@H]3O)nc3c(C)csc23)cn1 [Compound 105]
**Result** 87.7

**Query** Any idea what its Emax is? The compound is Cn1ccc(-c2ccc(Cc3cc(C(=O)NCC4CCO4)nc4ccsc34)cn2)n1 (centres unmarked) [Compound 355]
**Result** 86.6

I: Cn1ccc2nc(C(=O)N[C@H]3CCOC[C@@H]3O)cc(Cc3ccc(-c4nccs4)cc3)c21 [Compound 478]
II: O=C(N[C@@H]1CCC[C@H]1O)c1cc(Cc2ccc(C(F)(F)F)nc2)c2sccc2n1 [Compound 88]
**Query** Lab note: record which item had the higher Emax, I or II . State your choice using its label.
**Result** II
(II: 90.5%, I: 53.2%)

* * *

Molecular target: human mAChR M1 (Homo sapiens, UniProt P11229)
Test: mAChR M1 cell-based functional assay: calcium mobilization, positive allosteric modulator mode (increase in EC20 acetylcholine response)
Conditions: Table 2; human M1; read-out: Human M1 Emax (%)
Measured Attribute: Emax (%)

Recorded results for 6 molecules are shown here.
**Query** Field: Emax (human mAChR M1 (Homo sapiens, UniProt P11229)). Entry: "Cc1ncc(Cc2cc(C(=O)NC3CCCCC3)nc3ccsc23)s1"
**Result** 37.6

**Query** Field: Emax (human mAChR M1 (Homo sapiens, UniProt P11229)). Entry: "Cn1ncc2nc(C(=O)NC3CC4(COC4)C3)cc(Cc3ccc(-c4cscn4)cc3)c21"
**Result** 52

**Query** Field: Emax (human mAChR M1 (Homo sapiens, UniProt P11229)). Entry: "Cn1ccc(-c2ccc(Cc3cc(C(=O)NC4CCOCC4)nc4ccn(C)c34)cn2)n1"
**Result** 66.6

**Query** Field: Emax (human mAChR M1 (Homo sapiens, UniProt P11229)). Entry: "Cc1nc(-c2ccc(Cc3cc(C(=O)N[C@@H]4CCOC[C@H]4O)nc4ccsc34)cc2)co1"
**Result** 81.6

**Query** Field: Emax (human mAChR M1 (Homo sapiens, UniProt P11229)). Entry: "O=C(N[C@@H]1CC[C@H]1O)c1cc(Cc2ccc(-n3cccn3)cc2)c2sccc2n1"
**Result** 79.8

**Query** Field: Emax (human mAChR M1 (Homo sapiens, UniProt P11229)). Entry: "Cc1csc2c(Cc3ccc(-c4ccn(C)n4)cc3)cc(C(=O)NC3CC(F)(F)C3)nc12"
**Result** 57.3

1: CO[C@@H]1CCCC[C@H]1NC(=O)c1cc(Cc2ccc(C(F)(F)F)nc2)c2sccc2n1
2: O=C(N[C@@H]1CC[C@H]1O)c1cc(Cc2c(F)cc(-c3cscn3)cc2F)c2sccc2n1
**Query** Which of these two has the smaller recorded Emax: 1 or 2 ? State your choice using its label.
**Result** 2
